The measurements presented in this section are drawn from patent US7579488B2.

Reported Mouse Hypercal is given for each of the following compounds.
- System: female DBF mice
- assaySummary: Mouse hypercalcemia assay
- measurementConditions: oral gavage for 6 days; serum ionized calcium 6 hours after last dosing

May I ask what Mouse Hypercal has been recorded for `CCC(CC)(c1ccc(OCC(=O)C(C)(C)C)c(C)c1)c1ccc2oc(C(=O)O)cc2c1` ?
>1000 µg/kg/day

Can you look up the measured Mouse Hypercal of `CCC(CC)(c1ccc(OCC(=O)C(C)(C)C)c(C)c1)c1cc2cc(C(=O)Nc3nn[nH]n3)ccc2o1` for me?
>1000 µg/kg/day

Record request: Mouse Hypercal value, item `CCC(CC)(c1ccc(OCC(=O)C(C)(C)C)c(C)c1)c1cc2cc(C(=O)O)ccc2o1`
>1000 µg/kg/day

Can you look up the measured Mouse Hypercal of `CCC(CC)(c1ccc(OCC(=O)C(C)(C)C)c(C)c1)c1ccc2oc(C(=O)NCC(=O)O)cc2c1` for me?
>300 µg/kg/day

Which value of Mouse Hypercal has been reported for `CCC(CC)(c1ccc(OCC(=O)C(C)(C)C)c(C)c1)c1cc2ccc(C(=O)O)cc2o1` in the records?
>300 µg/kg/day

Data request, read-out Mouse Hypercal, for `CCC(CC)(c1ccc(OCC(=O)C(C)(C)C)c(C)c1)c1cc2cc(C(=O)NCC(=O)O)ccc2o1`
>300 µg/kg/day

Suppose we examine the compound `CCC(CC)(c1ccc(OCC(=O)C(C)(C)C)c(C)c1)c1ccc2oc(C(=O)O)c(C)c2c1` ; what Mouse Hypercal value has been reported?
>3000 µg/kg/day

For `CCC(CC)(c1ccc(OCC(=O)C(C)(C)C)c(C)c1)c1ccc2oc(C(=O)NCC(=O)O)c(C)c2c1` , what is its reported Mouse Hypercal?
>30 µg/kg/day

----------
- assayedTarget: VDR (Homo sapiens)
- Construct: the receptor expression vector pGal4-VDR-LBD (10 ng); expressed in transfected cells; host or cells: Caco-2 cells
- Sequence (P11473 127-423 limits assumed): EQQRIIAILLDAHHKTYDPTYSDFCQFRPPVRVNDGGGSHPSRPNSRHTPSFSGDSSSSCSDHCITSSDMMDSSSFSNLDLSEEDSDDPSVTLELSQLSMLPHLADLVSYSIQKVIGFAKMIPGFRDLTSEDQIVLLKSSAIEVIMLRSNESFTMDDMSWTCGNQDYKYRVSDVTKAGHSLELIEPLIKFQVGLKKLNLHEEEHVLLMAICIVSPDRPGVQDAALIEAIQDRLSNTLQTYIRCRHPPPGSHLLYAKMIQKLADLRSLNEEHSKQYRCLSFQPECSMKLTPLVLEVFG
- assaySummary: VDR CTF (Caco-2 cell co-transfection) assay
- Format: cell-based
- measurementConditions: Caco-2 cells, pGal4-VDR-LBD co-transfection, luciferase; several values separated by /
experimentalReadout: EC50 (nM)

Look over these answered cases.
| compound | experimentalReadout | unitString | number |
| --- | --- | --- | --- |
| CCC(CC)(c1ccc(OCC(=O)C(C)(C)C)c(C)c1)c1cc2cc(C(=O)NCC(=O)O)ccc2o1 | EC50 | nM | 412 |
| CCC(CC)(c1ccc(OCC(O)C(C)(C)C)c(C)c1)c1ccc2oc(C(=O)O)cc2c1 (stereo not shown) | EC50 | nM | 279 |
| CCC(CC)(c1ccc(OCC(=O)C(C)(C)C)c(C)c1)c1cc2ccc(C(=O)O)cc2o1 | EC50 | nM | 472 |
| CCC(CC)(c1ccc(OCC(O)C(C)(C)C)c(C)c1)c1cc2cc(C(=O)NCC(=O)O)ccc2o1 (stereo not shown) | EC50 | nM | 120 |
| CCC(CC)(c1ccc(OCC(=O)C(C)(C)C)c(C)c1)c1ccc2oc(C(=O)NCC(=O)O)c(C)c2c1 | EC50 | nM | 314 |

(P) CCC(CC)(c1ccc(OCC(=O)C(C)(C)C)c(C)c1)c1ccc2oc(C(=O)O)c(C)c2c1
(Q) CCC(CC)(c1ccc(OCC(O)C(C)(C)C)c(C)c1)c1cc2cc(C(=O)Nc3nn[nH]n3)ccc2o1 (stereo not shown)
Task for the reader: decide whether P or Q has the larger EC50. Mark your answer with the label of the selected entry.
P
(P: 896 nM, Q: 602 nM)

(a) CCC(CC)(c1ccc(OCC(O)C(C)(C)C)c(C)c1)c1cc2ccc(C(=O)O)cc2o1 (stereo not shown)
(b) CCC(CC)(c1ccc(OCC(=O)C(C)(C)C)c(C)c1)c1ccc2oc(C(=O)NCC(=O)O)cc2c1
Which of the two gives a bigger number for EC50: a or b ? Field: selected label. Fill in the label of the entry you choose.
a
(a: 620 nM, b: 385 nM)
